Numbers sourced from patent US20160185837A1.

# targetOrTestSystem: human GLP-1 receptor (human) (UniProt P43220)
# Sequence (P43220 24-463): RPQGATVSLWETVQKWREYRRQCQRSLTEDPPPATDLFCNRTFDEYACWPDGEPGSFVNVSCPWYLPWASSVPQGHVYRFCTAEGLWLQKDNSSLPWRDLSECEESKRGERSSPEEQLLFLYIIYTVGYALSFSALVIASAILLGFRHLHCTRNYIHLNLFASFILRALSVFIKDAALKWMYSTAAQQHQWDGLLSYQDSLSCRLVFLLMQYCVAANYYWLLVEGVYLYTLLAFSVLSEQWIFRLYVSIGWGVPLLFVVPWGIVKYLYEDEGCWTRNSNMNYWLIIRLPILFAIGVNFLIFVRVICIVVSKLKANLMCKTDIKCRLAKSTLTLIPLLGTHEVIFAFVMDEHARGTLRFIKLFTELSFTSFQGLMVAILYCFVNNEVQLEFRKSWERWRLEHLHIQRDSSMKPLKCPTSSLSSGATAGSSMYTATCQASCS
# protocolDetails: cell-based or functional assay
measure: cAMP EC50, Batch 1 (nM)
Numbers only, in nM.

// solved cases for cAMP EC50, Batch 1 follow
* IP191 (Fc fusion) HGEGTFTSDVSSYLEGQAAKEFIAWLVKGAAAGGSGSTASSGSGSATGGGGAATYTCPPCPAPEF | 0.057
* IP233 (Fc fusion) HGEGTFTSDVSSYLEEQAAKEFIAWLVKGAAAGGSGSTASSGSGSATGGGGAATHTCPPCPAPEF | 0.036

Now examine the next entry.
Prompt: Give reported cAMP EC50, Batch 1 value for IP193 (Fc fusion) HGEGTFTSDVSSYLEGQAAKEFIAWLVKGAAAGGSGSTASSGSGSATGGGGCPPCPAPEF
Response: 0.064
